- SUBJECT_OF_TEST: 72 kDa type IV collagenase (Homo sapiens)
- Sequence (P08253 whole entry): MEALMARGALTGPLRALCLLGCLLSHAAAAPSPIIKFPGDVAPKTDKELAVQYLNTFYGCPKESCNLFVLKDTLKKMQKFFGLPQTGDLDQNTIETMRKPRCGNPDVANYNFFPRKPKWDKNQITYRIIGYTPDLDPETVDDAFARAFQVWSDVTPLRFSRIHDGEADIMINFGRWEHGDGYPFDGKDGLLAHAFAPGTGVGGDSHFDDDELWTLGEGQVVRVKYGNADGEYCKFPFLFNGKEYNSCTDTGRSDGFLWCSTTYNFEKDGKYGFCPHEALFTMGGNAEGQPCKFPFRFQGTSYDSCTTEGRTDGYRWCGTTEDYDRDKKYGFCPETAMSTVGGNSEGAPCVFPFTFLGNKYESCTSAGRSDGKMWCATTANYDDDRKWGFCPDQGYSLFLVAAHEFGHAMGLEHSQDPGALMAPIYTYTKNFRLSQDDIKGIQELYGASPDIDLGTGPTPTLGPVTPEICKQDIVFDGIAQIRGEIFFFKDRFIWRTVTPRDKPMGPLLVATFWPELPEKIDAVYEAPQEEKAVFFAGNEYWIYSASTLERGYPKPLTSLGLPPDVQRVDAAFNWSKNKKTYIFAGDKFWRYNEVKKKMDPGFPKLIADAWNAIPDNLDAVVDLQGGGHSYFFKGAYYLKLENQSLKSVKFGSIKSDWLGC
- METHOD_SUMMARY: Inhibition of MMP2 (unknown origin) using succinylated gelatin as substrate preincubated for 10 mins before substrate addition measured after 30 mins by spectrophotometry
MEASUREMENT_NAME: pIC50
pIC50 (log units): -log10 of the concentration in mol/L.

Worked cases, pIC50 given:
• Cc1ccc(S(=O)(=O)N2C[C@@H](NC(=O)CNC(=O)[C@@H](N)Cc3ccccc3)C[C@H]2C(=O)NO)cc1.Cl = 6.01
• CC(C)C[C@H](N)C(=O)NCC(=O)N[C@H]1C[C@@H](C(=O)NO)N(S(=O)(=O)c2ccccc2)C1.Cl = 5.82
• COc1ccc(S(=O)(=O)N2C[C@@H](NC(=O)CNC(=O)[C@@H](N)C(C)C)C[C@H]2C(=O)NO)cc1.Cl = 5.57
• Cl.N[C@@H](Cc1ccccc1)C(=O)NCC(=O)N[C@H]1C[C@@H](C(=O)NO)N(S(=O)(=O)c2ccc(Cl)cc2)C1 = 6.37

// next item, pIC50 requested
Which value of pIC50 has been reported for CC(C)C[C@H](N)C(=O)NCC(=O)N[C@H]1C[C@@H](C(=O)NO)N(S(=O)(=O)c2ccc(Cl)cc2)C1.Cl in the records?
6.57
